// reported GI50 per item
- Test system: DU-145
- ASSAY: NCI tumour cell line growth inhibition, 48 h
Calls of active or inactive are those of the source. Rule as the data show it: active = GI50 up to about 1.1 µM and inactive = higher.

MOLECULE	GI50
COc1ccc(N2C(=O)/C(=C/c3ccc(N(CCC#N)CCC#N)cc3)N=C2c2ccccc2)cc1	> 100 µM (inactive)
O=C1/C(=C/c2ccccc2)CCCc2ccccc21	23.2 µM (inactive)
O=C(OC1OC2COC(=O)c3cc(O)c(O)c(O)c3-c3c(cc(O)c(O)c3O)C(=O)OC3C2OC(=O)[C@@]24CC(=O)[C@@](O)(OC25C(=O)O[C@H]2[C@@H](O)CO[C@@]25O)C2(O)Oc5c(O)c(O)cc(c5C24)C(=O)OC13)c1cc(O)c(O)c(O)c1 (some centres undefined)	44.7 µM (inactive)
COc1cc(NC(C)=O)ccc1C(=O)NN1C(=O)/C(=C/c2ccco2)N=C1c1ccccc1	> 50 µM (inactive)
CC[N+](CC)(CCNCC(N)=O)CC(N)=O	> 10 µM (inactive)
CSC1=N/C(=C\c2ccc(Cl)cc2)C(=O)N1CN1CCOCC1	63.8 µM (inactive)
Nc1c(-c2cccc3ccccc23)c2ccc([N+](=O)[O-])cc2c(=O)n1-c1nc2ccccc2s1	7.57 µM (inactive)
CC(=O)c1ccc(O)c(CN(C2CCCCC2)C2CCCCC2)c1O	> 100 µM (inactive)
Cc1ccc(S(=O)(=O)c2ccsc2NC(=O)C(F)(F)F)cc1	42.6 µM (inactive)

----------
- System: MDA-MB-435
- ASSAY: NCI tumour cell line growth inhibition, 48 h
Calls of active or inactive are those of the source. Rule as the data show it: active = GI50 up to about 1.1 µM and inactive = higher.
Outcomes: 1.0 for active, 0.0 for inactive

COMPOUND	TEST SYSTEM	QUALITATIVE LABEL
N=C(N)C1CN(CCCCCCCCCCN2CC(C(=N)N)C(O)=NC2=O)C(=O)N=C1O (stereo not given)	MDA-MB-435	0.0
O=C(O)Cn1ccc(=O)c2cc([N+](=O)[O-])ccc21	MDA-MB-435	0.0
CC(C)(/C=N/O)/[N+]([O-])=C/c1ccccc1	MDA-MB-435	0.0
COc1ccccc1/C=C1\NC(=S)N(/C=C2\C(=O)Oc3ccccc3C2=O)C1=O	MDA-MB-435	0.0
Cc1csc2c1-n1cccc1C2=O	MDA-MB-435	0.0
N#CCc1nc(-c2cc3ccc(O)cc3oc2=O)cs1	MDA-MB-435	0.0
CC(=O)O[C@H]1C(=O)[C@@]2(C)[C@H]([C@H](OC(=O)c3ccccc3)[C@]3(O)C[C@H](OC(=O)[C@H](O)[C@@H](NC(=O)CC(C)(C)C)c4ccccc4)C(C)=C1C3(C)C)C1(OC(C)=O)CO[C@@H]1C[C@@H]2O (stereo not given in full)	MDA-MB-435	1.0
O=C(/C=C/c1ccc(/C=C/C(=O)c2ccc(O)cc2)cc1)c1ccc(O)cc1	MDA-MB-435	0.0
CCC1(O)CC2CC(=O)OC2C1O (stereo not given)	MDA-MB-435	0.0
Cc1ccc(S(=O)(=O)N2CCC(=O)c3cc(Br)ccc32)cc1	MDA-MB-435	0.0

----------
- Tested on: COLO 205
- ASSAY: NCI tumour cell line growth inhibition, 48 h
Activity calls are given as the source filed them. Cut-off read from the data, not from the text of the source: active = GI50 up to about 1.1 µM and inactive = higher.
Classes used: active, inactive

COMPOUND	QUALITATIVE LABEL
CC1=CCC(O)C=CC(C)C(O)C(C)C=C(C)C(=O)c2c(O)c(C)cc3c2C(=O)C(N)=C(NC(=O)/C=C\C=C/C=CC(C)C(O)CC1=O)C3=O (configuration not stated)	inactive
CCOC(=O)CNC(=O)N(CC)C12CC3CC(CC(C3)C1)C2	inactive
CC1C[C@H](C)CC(C(O)CC2CC(=O)N(Cc3ccccc3)C(=O)C2)C1O (some centres not stated)	inactive
COc1cc(NS(C)(=O)=O)ccc1NCc1c[nH]c2ccc3ncccc3c12	inactive
CCc1cc(C(=O)OC)cn1C(=N)c1ccc(Cl)cc1	inactive
CC(=O)N/C(=C\c1ccc(/C=C(\NC(C)=O)C2=NC3C(=O)c4ccccc4C(=O)C3N2)cc1)C1=NC2C(=O)c3ccccc3C(=O)C2N1 (configuration not stated)	inactive
CC1=NN(c2nc(N)nc(/C(C#N)=C\c3cccc([N+](=O)[O-])c3)n2)C(C)(C)C1	inactive
C/C(=N\NC(=S)NNC(=S)N(C)c1ccccc1)c1ccccn1	active
CC(C)(C)OC(=O)NCC(c1c[nH]c2ccccc12)c1c[nH]c2ccccc12	inactive
CC1=C(O)/C(=C/C(C)CCC/C(C)=C/C=C/C(C)CCCc2ccoc2)OC1=O (configuration not stated)	inactive
CCCCN1C(=O)CC2[C@@H]3CCc4cc(OC)ccc4C3CC[C@]2(C)C1=O (some centres not stated)	inactive
NC1=NS(=O)(=O)Nc2nc(-c3ccc(Cl)cc3)[nH]c21	inactive
NP1(Oc2ccc(F)cc2)=NP(N)(Oc2ccc(F)cc2)=NP(Oc2ccc(F)cc2)(Oc2ccc(F)cc2)=N1 (configuration not stated)	inactive
CC(NC(NC(C)C12CC3CC(CC(C3)C1)C2)=C(C(Cl)=C(Cl)Cl)[N+](=O)[O-])C12CC3CC(CC(C3)C1)C2 (configuration not stated)	inactive
COc1cc2c(cc1OC)-c1cc3ccc(OC)c(OC)c3c[n+]1CC2 [PALMATINE CHLORIDE]	inactive
COC(=O)c1c(C(=O)OC)c2cc(C(=O)c3ccccc3)ccn2c1Cl	inactive
COC(=O)CC(CNC(=O)OCc1ccccc1)OCc1ccc(OC)cc1 (configuration not stated)	inactive
Cc1ccc2c(n1)C(=O)c1ccccc1C2=O	inactive
NS(=O)(=O)c1ccc(NC(=O)Cc2nc3ccccc3s2)cc1	inactive
Cc1cn2c(=O)c3ncn(C4OC(CO)C(O)C4O)c3n(C)c2n1 (configuration not stated)	inactive
CCC(C)C1(O)OC2CC3(C)OC(=CC3=O)/C(C)=C\C3OC(=O)C1(C)C32 (configuration not stated)	inactive
O=C1CS[C@@](CC(c2ccc(Cl)cc2)c2ccc(Cl)cc2)(c2ccc(Cl)cc2)N1	inactive
CC(=O)c1cccc(NC(=O)C(=O)Nn2c(N)nnc2N)c1	inactive
Cc1cc(N(CCC#N)CCC#N)ccc1/N=N/c1ccc(Br)cc1	inactive
Clc1ccc(Cn2cc(/C=N/n3cnnc3)c3ccccc32)cc1	inactive
CC1=C(C(=O)N[C@@H](CC(C)C)C(=O)O)N2C(=O)[C@@H](NC(=O)C(N)c3ccccc3)[C@H]2SC1 (some centres not stated)	inactive
COc1ccc(OC)c(CNc2ccc(O)c(C(=O)NCCc3ccc(F)cc3)c2)c1	inactive

----------
Measured GI50 of individual entries
- Tested on: NCI-H522
- ASSAY: NCI tumour cell line growth inhibition, 48 h
Calls of active or inactive are those of the source. Cut-off read from the data, not from the text of the source: active = GI50 up to about 1.1 µM and inactive = higher.

MOLECULE	TEST SYSTEM	GI50
NS(=O)(=O)c1ccc(NC(=O)Cc2nc3ccccc3s2)cc1	NCI-H522	18.1 µM (inactive)
COc1cc(NC(C)=O)ccc1C(=O)NN1C(=O)/C(=C/c2ccco2)N=C1c1ccccc1	NCI-H522	24.5 µM (inactive)
O=C1c2c(O)cccc2C(C(=O)CCCCCC(=O)C2c3cccc(O)c3C(=O)c3c(O)cccc32)c2cccc(O)c21	NCI-H522	0.638 µM (active)
O=P(CN1CCOCC1)(c1ccccc1)c1ccccc1	NCI-H522	> 100 µM (inactive)
O=c1[nH]c2nc3ccccc3c(=O)n2/c1=C/c1ccc(O)cc1	NCI-H522	23.2 µM (inactive)
CC(=O)C(CN(C)Cc1ccccc1)C(c1ccccc1)c1c(O)c2ccccc2oc1=O (stereo not given)	NCI-H522	80.4 µM (inactive)
CCOC(=O)C(C)c1nc2cc(N3CCN(C)CC3)c(F)cc2[nH]c1=O (stereo not given)	NCI-H522	40.5 µM (inactive)
COc1cc2c(cc1[N+](=O)[O-])C(=O)C(Br)(Br)CCC2	NCI-H522	0.771 µM (active)
O=C1/C(=C/c2ccccc2)CN(C(=O)C(F)(F)F)C/C1=C\c1ccccc1	NCI-H522	2.74 µM (inactive)
O=C1CSC(c2ccc([N+](=O)[O-])cc2)N1c1nc(-c2ccc3c(c2)CCCC3)cs1 (stereo not given)	NCI-H522	> 100 µM (inactive)

----------
- Test system: COLO 205
- ASSAY: NCI tumour cell line growth inhibition, 48 h
Active and inactive are the calls of the source. No stated cut-off is given here; in the data, active = GI50 up to about 1.1 µM and inactive = higher. Where a SMILES comes first, the peptide text is derived from it. [ ]: non-standard residue; d: D form. The star is where a group is joined. NMeF = CN[CH](Cc1ccccc1)C(=O)O; NMeV = CN[CH](C(=O)O)C(C)C; Boc = CC(C)(C)OC(=O)*; OBn = c1ccc(CO*)cc1
Classes used: active, inactive

COMPOUND	QUALITATIVE LABEL
COc1ccc(C(=O)O)c2c(=O)c3ccccc3[nH]c12	inactive
COc1ccc(COCC[C@H](C)OC2OC(CO[Si](C)(C)C(C)(C)C)C(O)C(O)C2O)cc1 (some centres undefined)	inactive
CCc1ncnc2cc(OCC3CO3)c(OC)cc12 (centres undefined)	inactive
CCSc1nc(N2CCOCC2)c2cn[nH]c2n1	inactive
CC(C)(C)C1=NC(=P(c2ccccc2)(c2ccccc2)c2ccccc2)C(=O)O1	inactive
O=C(CC(NC(=O)C(F)(F)F)C(=O)O)OCc1ccccc1 (centres undefined)	inactive
NC(=O)Nc1cc(O)ccc1/N=N/c1ccc(S(=O)(=O)Nc2ccccn2)cc1	inactive
CC(C)C1CNC(=O)C2(/C=N/C(C(C)C)CNC(=O)C3(/C=N/1)CCCO3)CCCO2 (centres undefined)	inactive
O=C1/C(=C/c2ccccc2)CCCc2ccccc21	inactive
O=c1c2c(c1=O)-c1ccccc1CN2	inactive
CCn1c(SC(C)C(=O)c2c(C)n(C)n(-c3ccccc3)c2=O)nc2ccccc2c1=O (centres undefined)	inactive
CC(C)c1nc2cc(C(F)(F)F)ccc2[nH]c1=O	inactive
O=C(COc1ccccc1)N(C(=O)N1CCN(c2ccccc2)CC1)S(=O)(=O)c1ccccc1	inactive
C[C@]12CCC3c4ccc(O)cc4CC[C@H]3C1CC(=O)N(N)C2=O (some centres undefined)	inactive
S=C(S)NCCCn1ccnc1	inactive
CCOC(=O)c1c(NC(=O)c2ccc(Br)cc2)sc2c1CCCC2	inactive
c1ccc(CNn2nnc3ccccc32)cc1	inactive
COc1cc(/C=C\c2ccc(C)cc2)cc(OC)c1OC	active
CC(C)C(NC(=O)OC(C)(C)C)C(=O)N(C)C(Cc1ccccc1)C(=O)N(C)C(C(=O)N(C)C(C(=O)OCc1ccccc1)C(C)C)C(C)C (centres undefined) (Boc-V[NMeF][NMeV][NMeV]-OBn; configuration not given here)	inactive
CN(C)CCCNc1ccc2ncn3c4ccccc4c(=O)c1c23	inactive
N#C/C(C(=O)Nc1ccccc1)=C(/N)N1CCOCC1	inactive
CCCNc1ncnc2c1cnn2C	inactive
O=c1c2ccccc2c(=O)c2c1cc(Cl)c1[nH]c3c([nH]c12)c(Cl)cc1c(=O)c2ccccc2c(=O)c13	inactive
COc1ccc2nc3ccc(OC)cc3c(SCc3ccc([N+](=O)[O-])cc3)c2c1	inactive
O=C(O)c1cccc2cccc(-c3c4ccc(=O)cc-4oc4cc(O)ccc34)c12	inactive
COc1cc(OC)c(SSCCCCS(=O)O)c(OC)c1	inactive
O=C(c1ccccc1)c1ccc2c(c1)nc1n2C(c2c(F)cccc2F)SC1 (centres undefined)	inactive
O=C(/C=C(\O)C(=O)O)/C=C(\O)c1ccc(Cl)cc1	inactive
O=C(N/N=C/c1ccc(Cl)cc1)c1ccccc1Nc1ccccc1C(=O)N/N=C/c1ccc(Cl)cc1	inactive
CC(=O)SSC1(Cl)C(C)(C)C(Cl)(SSC(C)=O)C1(C)C (centres undefined)	inactive
Oc1ncnc2c1sc(=S)n2-c1ccccc1	inactive
CCCCCCCCCCCCCCC(C)CCC(=O)O (centres undefined)	inactive
COc1ccc2nc3c([N+](=O)[O-])ccc4c3c(c2c1)N(CCCN(C)C)C(=S)N4CCCN(C)C	inactive
CSC1=N/C(=C\c2ccc(Cl)cc2)C(=O)N1CN1CCOCC1	inactive
COc1nc(N(C)C)nc2c1[n+](C)cn2C	inactive
CC1=Nc2ccccc2NC(c2ccoc2)C1 (centres undefined)	inactive
O=C(Nc1ccc(Cl)cc1C(F)(F)F)C(=O)C1CCCS1(=O)=O (centres undefined)	inactive
CCC1C[N+]23CCc4c([nH]c5ccccc45)C2CC1CC3 (centres undefined)	inactive
Nc1nc(Cl)cc(Nc2ccc3c(c2)CCC3)n1	inactive
N#CC1N(C(=O)c2ccc(F)cc2)c2ccccc2N1C(=O)c1ccc(F)cc1	inactive
O=C1Nc2ccc(S(=O)(=O)N(CCO)CCO)cc2/C1=C1/Nc2ccccc2C1=O	inactive
NS(=O)(=O)c1ccc(NC(=S)N/C=C2\C(=O)Nc3ccccc3C2=O)cc1	inactive
CN(C)CCNC(=O)c1cccc(NC(=O)c2ccccc2)c1[N+](=O)[O-]	inactive
CCC1(O)CC2CC(=O)OC2C1O (centres undefined)	inactive
